The reported numbers originate from patent US20150141381A1.

MIC overview
Tested on: E. coli mL308 225
Procedure summary: In Vitro Anti-Bacterial Activity Assay (MIC), gram negative
Assay type: cell-based
Test conditions: Escherichia coli, ML308225, 18 h, gram negative bacteria; read-out: Antibiotic Activity Gram − (MIC)
Property: MIC

compound=CN(C)[C@@H]1C(O)=C(C(N)=O)C(=O)[C@@]2(O)C(O)=C3C(=O)c4c(O)ccc(-c5ccc(CNC6CC6)o5)c4C[C@H]3C[C@@H]12 property=MIC result="< 4 µg/mL"
compound="CCCOc1cccc2c1C(=O)C1=C(O)[C@]3(O)C(=O)C(C(N)=O)=C(O)[C@@H](N(C)C)[C@@H]3C[C@@H]1C2 [drawing 3578]" property=MIC result="> 4 µg/mL"
compound=CN(C)c1cc(CNNCC(F)(F)F)c(O)c2c1C[C@H]1C[C@H]3[C@H](N(C)C)C(O)=C(C(N)=O)C(=O)[C@@]3(O)C(O)=C1C2=O property=MIC result="> 4 µg/mL"
compound=CN(C)c1cc(CN2CCc3ccccc3C2)c(O)c2c1C[C@H]1C[C@H]3[C@H](N(C)C)C(O)=C(C(N)=O)C(=O)[C@@]3(O)C(O)=C1C2=O property=MIC result="< 4 µg/mL"
compound=CN(C)c1cc(-c2ccc(CN3CCN(CCO)CC3)o2)c(O)c2c1C[C@H]1C[C@H]3[C@H](N(C)C)C(O)=C(C(N)=O)C(=O)[C@@]3(O)C(O)=C1C2=O property=MIC result="> 4 µg/mL"
compound=CN(C)[C@@H]1C(O)=C(C(N)=O)C(=O)[C@@]2(O)C(O)=C3C(=O)c4c(O)ccc(-c5ccccn5)c4C[C@H]3C[C@@H]12 property=MIC result="< 4 µg/mL"
compound=Cc1noc(C)c1-c1ccc(O)c2c1C[C@H]1C[C@H]3[C@H](N(C)C)C(O)=C(C(N)=O)C(=O)[C@@]3(O)C(O)=C1C2=O property=MIC result="< 4 µg/mL"
compound=CC(C)CN(Cc1ccc(O)c2c1C[C@H]1C[C@H]3[C@H](N(C)C)C(O)=C(C(N)=O)C(=O)[C@@]3(O)C(O)=C1C2=O)CC(C)C property=MIC result="< 4 µg/mL"
compound=CN(C)[C@@H]1C(O)=C(C(N)=O)C(=O)[C@@]2(O)C(O)=C3C(=O)c4c(O)c(CN)cc(Cl)c4C=C3C[C@@H]12 property=MIC result="> 4 µg/mL"
compound=CN(C)c1cc(CNC(=O)C(C)(C)C)c(O)c2c1C[C@H]1C[C@H]3[C@H](N(C)C)C(O)=C(C(N)=O)C(=O)[C@@]3(O)C(O)=C1C2=O property=MIC result="> 4 µg/mL"
compound="CC(NNC(N)=O)c1ccc(O)c2c1C[C@H]1C[C@H]3[C@H](N(C)C)C(O)=C(C(N)=O)C(=O)[C@@]3(O)C(O)=C1C2=O (stereo partly drawn)" property=MIC result="> 4 µg/mL"
compound=CN(C)c1cc(CN)c(O)c2c1C[C@H]1C[C@H]3[C@H](N(C)C)C(O)=C(C(N)=O)C(=O)[C@@]3(O)C(O)=C1C2=O property=MIC result="> 4 µg/mL"
compound=CN(C)c1cc(NCc2ccc([N+](=O)[O-])cc2)c(O)c2c1C[C@H]1C[C@H]3[C@H](N(C)C)C(O)=C(C(N)=O)C(=O)[C@@]3(O)C(O)=C1C2=O property=MIC result="> 4 µg/mL"
compound=CN(C)[C@@H]1C(O)=C(C(N)=O)C(=O)[C@@]2(O)C(O)=C3C(=O)c4c(O)c(CS(C)(=O)=O)cc(-c5ccccn5)c4C[C@H]3C[C@@H]12 property=MIC result="> 4 µg/mL"
compound="COC(=O)C(CO)NC(=O)c1cccc(-c2ccc(O)c3c2C[C@H]2C[C@H]4[C@H](N(C)C)C(O)=C(C(N)=O)C(=O)[C@@]4(O)C(O)=C2C3=O)c1 (stereo partly drawn)" property=MIC result="> 4 µg/mL"
compound=CCCCCCc1ccc(O)c2c1C[C@H]1C[C@H]3[C@H](N(C)C)C(O)=C(C(N)=O)C(=O)[C@@]3(O)C(O)=C1C2=O property=MIC result="< 4 µg/mL"
compound=COC(=O)c1ccc2c(c1O)C(=O)C1=C(O)[C@]3(O)C(=O)C(C(N)=O)=C(O)[C@@H](N(C)C)[C@@H]3[C@@H](O)[C@@H]1[C@H]2C property=MIC result="> 4 µg/mL"
compound="CN(C)[C@@H]1C(O)=C(C(N)=O)C(=O)[C@@]2(O)C(O)=C3C(=O)c4c(O)ccc(-c5ccc(C(C)(C)C)cc5)c4C[C@H]3C[C@@H]12 [drawing 3426]" property=MIC result="< 4 µg/mL"
compound=CN(C)[C@@H]1C(O)=C(C(N)=O)C(=O)[C@@]2(O)C(O)=C3C(=O)c4c(O)ccc(-c5ccc(CO)cc5)c4C[C@H]3C[C@@H]12 property=MIC result="< 4 µg/mL"
compound=CCN(Cc1ccccc1)Cc1cc(N(C)C)c2c(c1O)C(=O)C1=C(O)[C@]3(O)C(=O)C(C(N)=O)=C(O)[C@@H](N(C)C)[C@@H]3C[C@@H]1C2 property=MIC result="< 4 µg/mL"
compound=CN(C)[C@@H]1C(O)=C(C(N)=O)C(=O)[C@@]2(O)C(O)=C3C(=O)c4c(O)ccc(C(=O)CN5CCOCC5)c4C[C@H]3C[C@@H]12 property=MIC result="> 4 µg/mL"
compound=CN(C)[C@@H]1C(O)=C(C(N)=O)C(=O)[C@@]2(O)C(O)=C3C(=O)c4c(O)ccc(C#N)c4C[C@H]3C[C@@H]12 property=MIC result="< 4 µg/mL"
compound=CSCc1cc(I)c2c(c1O)C(=O)C1=C(O)[C@]3(O)C(=O)C(C(N)=O)=C(O)[C@@H](N(C)C)[C@@H]3C[C@@H]1C2 property=MIC result="< 4 µg/mL"
compound=C[C@H]1c2ccc(N3CCOCC3)c(O)c2C(=O)C2=C(O)[C@]3(O)C(=O)C(C(N)=O)=C(O)[C@@H](N(C)C)[C@@H]3[C@@H](O)[C@@H]21 property=MIC result="> 4 µg/mL"

====

Tested on: S. aureus RN450
Procedure summary: In Vitro Anti-Bacterial Activity Assay (MIC), gram positive
Type: cell-based
Test conditions: Staphylococcus aureus, RN450, 18 h, gram positive bacteria; read-out: Antibiotic Activity Gram + (MIC)
Property: MIC

compound=CCCOC(=O)Nc1ccc(-c2ccc(O)c3c2C[C@H]2C[C@H]4[C@H](N(C)C)C(O)=C(C(N)=O)C(=O)[C@@]4(O)C(O)=C2C3=O)cc1 property=MIC result="< 4 µg/mL"
compound=CC(C)c1cccc(-c2ccc(O)c3c2C[C@H]2C[C@H]4[C@H](N(C)C)C(O)=C(C(N)=O)C(=O)[C@@]4(O)C(O)=C2C3=O)c1 property=MIC result="< 4 µg/mL"
compound="CN(C)[C@@H]1C(O)=C(C(N)=O)C(=O)[C@@]2(O)C(O)=C3C(=O)c4c(O)ccc(-c5ccc6c(c5)OCO6)c4C[C@H]3C[C@@H]12 [drawing 3479]" property=MIC result="< 4 µg/mL"

====

As shown below, each of these compounds has a reported MIC value.
Test system: S. aureus RN450
Procedure summary: In Vitro Anti-Bacterial Activity Assay (MIC), gram positive
Assay type: cell-based
Test conditions: Staphylococcus aureus, RN450, 18 h, gram positive bacteria; read-out: Antibiotic Activity Gram + (MIC)
Property: MIC

compound=CC(=O)CCC(=O)Nc1ccc2c(c1O)C(=O)C1=C(O)[C@]3(O)C(=O)C(C(N)=O)=C(O)[C@@H](N(C)C)[C@@H]3C[C@@H]1C2 result="> 4 µg/mL"
compound=CC(C)OC(=O)c1cccc(-c2ccc(O)c3c2C[C@H]2C[C@H]4[C@H](N(C)C)C(O)=C(C(N)=O)C(=O)[C@@]4(O)C(O)=C2C3=O)c1 result="< 4 µg/mL"
compound=CC(=O)NCc1cc(N(C)C)c2c(c1O)C(=O)C1=C(O)[C@]3(O)C(=O)C(C(N)=O)=C(O)[C@@H](N(C)C)[C@@H]3C[C@@H]1C2 result="< 4 µg/mL"
compound=CN(C)[C@@H]1C(O)=C(C(N)=O)C(=O)[C@@]2(O)C(O)=C3C(=O)c4c(O)ccc(-c5ccc(CNCCc6ccc(Cl)cc6)cc5)c4C[C@H]3C[C@@H]12 result="< 4 µg/mL"
compound=CN(C)[C@@H]1C(O)=C(C(N)=O)C(=O)[C@@]2(O)C(O)=C3C(=O)c4c(O)ccc(-c5cc(F)cc(F)c5)c4C[C@H]3C[C@@H]12 result="< 4 µg/mL"
compound=CN(C)c1cc(NC2CC(C)(C)NC(C)(C)C2)c(O)c2c1C[C@H]1C[C@H]3[C@H](N(C)C)C(O)=C(C(N)=O)C(=O)[C@@]3(O)C(O)=C1C2=O result="> 4 µg/mL"
compound="COC(=O)C(CO)NC(=O)c1cccc(-c2ccc(O)c3c2C[C@H]2C[C@H]4[C@H](N(C)C)C(O)=C(C(N)=O)C(=O)[C@@]4(O)C(O)=C2C3=O)c1 (stereo partly drawn)" result="< 4 µg/mL"
compound=Cc1ccc(O)c2c1C[C@H]1C[C@H]3[C@H](N(C)C)C(O)=C(C(N)=O)C(=O)[C@@]3(O)C(O)=C1C2=O result="< 4 µg/mL"
compound=COC(=O)c1ccc2c(c1O)C(=O)C1=C(O)[C@]3(O)C(=O)C(C(N)=O)=C(O)[C@@H](N(C)C)[C@@H]3[C@@H](O)[C@@H]1[C@H]2C result="> 4 µg/mL"
compound=CN(C)C(=O)c1ccc(O)c2c1C[C@H]1C[C@H]3[C@H](N(C)C)C(O)=C(C(N)=O)C(=O)[C@@]3(O)C(O)=C1C2=O result="< 4 µg/mL"
compound="CN(C)c1cc(CNCCC(F)(F)F)c(O)c2c1C[C@H]1C[C@H]3[C@H](N(C)C)C(O)=C(C(N)=O)C(=O)[C@@]3(O)C(O)=C1C2=O [drawing 3671]" result="< 4 µg/mL"
compound=CN(C)c1cc(NCc2cc(F)cc(F)c2)c(O)c2c1C[C@H]1C[C@H]3[C@H](N(C)C)C(O)=C(C(N)=O)C(=O)[C@@]3(O)C(O)=C1C2=O result="> 4 µg/mL"
